Cited source for all entries: patent US11584756B2

- SYSTEM: BRD4-1 (Homo sapiens (Human))
- EXPERIMENT_SUMMARY: Bromodomain and Extraterminal Domain (BET) binding assay, BRD4-1
- EXPERIMENTAL_SETUP: histone H4 peptide (1-21) K5/8/12/16Ac-biotin ligand; 20 nM protein, 20 nM ligand
- Description: The bromodomain binding assays were performed by Reaction Biology Corp., Malvern, Pa., USA (www.reactionbiology.com). […] The microplate was read using a Perkin Elmer EnSpire Alpha plate reader (λ Ex/λ Em=680/520-620 nm). Percent inhibition was calculated relative to positive and negative controls on a per plate basis. For titration experiments, IC50 values were determined by fitting the percent inhibition versus compound concentration.
Readings of IC50 for the listed molecules

// solved cases for IC50 follow
smi=CCS(=O)(=O)Nc1ccc(Oc2c(C)cc(F)cc2C)c(-c2cn(C)c(=O)c3sc(-c4nc5ccccc5[nH]4)cc23)c1 system="BRD4-1 (Homo sapiens (Human))" assay_result="> 10 µM"
smi=Cc1cc(F)cc(C)c1Oc1ccc(C(C)(C)O)cc1-c1cn(C)c(=O)c2sc(-c3nc4ccccc4[nH]3)cc12 system="BRD4-1 (Homo sapiens (Human))" assay_result="> 10 µM"

Query :: What IC50 value was documented for this molecule, "C=C(C)c1ccc(Oc2c(C)cc(F)cc2C)c(-c2cn(C)c(=O)c3cc(C(=O)NCC)sc23)c1" ?
Result :: > 10 µM
